Assignment: determine reported CC50 for the given molecules.
method description: Cytotoxicity against human MT4 cells assessed as reduction on cell growth by MTT assay
Assay type: toxicity, cell-based

Please report CC50 for every entry that follows.
1. Cc1cc(C#N)cc(C)c1Oc1nc(Nc2ccc(C#N)cc2)nc(N)c1Br
2. Cc1cc(-c2cc(F)cc(C#N)c2)ccc1Oc1c(C(F)(F)F)ccn(Cc2n[nH]c(=O)n2C)c1=O
3. Cc1ccc(-c2ccc(Oc3c(C(F)(F)F)ccn(Cc4n[nH]c(=O)n4C)c3=O)c(F)c2)cc1
4. Cn1c(Cn2ccc(C(F)(F)F)c(Oc3ccc(-c4cccc(F)c4)cc3F)c2=O)n[nH]c1=O
5. Cc1cccc(-c2ccc(Oc3c(C(F)(F)F)ccn(Cc4n[nH]c(=O)n4C)c3=O)c(C)c2)c1
6. Cc1ccc(-c2cc(C#N)cc(Oc3c(C(F)(F)F)ccn(Cc4n[nH]c(=O)n4C)c3=O)c2)cc1

Reply:
["> 4.6 µM", "23.3 µM", "38 µM", "46.8 µM", "19.1 µM", "> 267 µM"]

* * *

method description: Clearance in Sprague-Dawley rat at 1 mg/kg,iv
Format: ADME, organism-based
condition info: in vivo
quantity kind: clearance (L/h/kg)
Numbers only, in L/h/kg.

Item: Cc1cccc(-c2cc(C#N)cc(Oc3c(C(F)(F)F)ccn(Cc4n[nH]c(=O)n4C)c3=O)c2)c1 | clearance: 1.07

* * *

method description: Cytotoxicity against human MT4 cells assessed as reduction on cell growth by MTT assay
Assay type: toxicity, cell-based
quantity kind: CC50 (µM)
Numbers only, in µM.

{"smiles notation": "Cn1c(Cn2ccc(C(F)(F)F)c(Oc3c(F)cc(-c4cccc(F)c4)cc3F)c2=O)n[nH]c1=O", "CC50 [µM]": 25.4}

Please report CC50 for every entry that follows.
1. Cn1c(Cn2ccc(C(F)(F)F)c(Oc3c(F)cc(-c4cccc(C#N)c4)cc3F)c2=O)n[nH]c1=O
2. Cc1cccc(-c2ccc(Oc3c(C(F)(F)F)ccn(Cc4n[nH]c(=O)n4C)c3=O)c(F)c2)c1
3. Cn1c(Cn2ccc(C(F)(F)F)c(Oc3cc(C#N)cc(-c4ccc(C#N)cc4)c3)c2=O)n[nH]c1=O

Reply:
1. 21.2
2. 20.3
3. 142

* * *

method description: Selectivity index, ratio of CC50 for cytotoxicity against human MT4 cells to EC50 of Anti-HIV activity against HIV-1 IIIB infected in human MT4 cells
Type: toxicity, cell-based
condition info: read-out: Ratio CC50/EC50
Class (by selectivity ratio) -- low: < 9; mid: ≥ 9 and < 70; high: ≥ 70

Sample answers from the record:
{"smiles notation": "Cc1cc(Oc2c(C(F)(F)F)ccn(Cc3n[nH]c(=O)n3C)c2=O)ccc1-c1cccc(C#N)c1", "assigned class": "high"}
{"smiles notation": "Cn1c(Cn2ccc(C(F)(F)F)c(Oc3ccc(-c4ccc(F)cc4)cc3F)c2=O)n[nH]c1=O", "assigned class": "low"}
{"smiles notation": "Cn1c(Cn2ccc(C(F)(F)F)c(Oc3ccc(-c4cccc(F)c4)cc3F)c2=O)n[nH]c1=O", "assigned class": "low"}
{"smiles notation": "COc1cc(-c2cc(F)cc(C#N)c2)ccc1Oc1c(C(F)(F)F)ccn(Cc2n[nH]c(=O)n2C)c1=O", "assigned class": "mid"}
{"smiles notation": "Cc1cc(C#N)cc(C)c1Oc1nc(Nc2ccc(C#N)cc2)nc(N)c1Br", "assigned class": "high"}
{"smiles notation": "Cn1c(Cn2ccc(C(F)(F)F)c(Oc3ccc(-c4cccc(F)c4)cc3)c2=O)n[nH]c1=O", "assigned class": "low"}
{"smiles notation": "Cn1c(Cn2ccc(C(F)(F)F)c(Oc3c(F)cc(-c4cccc(C#N)c4)cc3F)c2=O)n[nH]c1=O", "assigned class": "mid"}
{"smiles notation": "Cn1c(Cn2ccc(C(F)(F)F)c(Oc3ccc(-c4ccc(C#N)cc4)cc3F)c2=O)n[nH]c1=O", "assigned class": "low"}
{"smiles notation": "Cn1c(Cn2ccc(C(F)(F)F)c(Oc3ccc(-c4cccc(C#N)c4)c(F)c3)c2=O)n[nH]c1=O", "assigned class": "high"}
{"smiles notation": "Cn1c(Cn2ccc(C(F)(F)F)c(Oc3cc(C#N)cc(-c4cccc(C#N)c4)c3)c2=O)n[nH]c1=O", "assigned class": "high"}

Ask: Kindly state the category for this compound: Cn1c(Cn2ccc(C(F)(F)F)c(Oc3ccc(-c4ccc(F)c(C#N)c4)cc3F)c2=O)n[nH]c1=O
Reply: mid

Ask: Kindly state the category for this compound: Cc1cccc(-c2cc(F)c(Oc3c(C(F)(F)F)ccn(Cc4n[nH]c(=O)n4C)c3=O)c(F)c2)c1
Reply: low

Ask: Kindly state the category for this compound: Cn1c(Cn2ccc(C(F)(F)F)c(Oc3cc(C#N)cc(-c4cc(F)cc(C#N)c4)c3)c2=O)n[nH]c1=O
Reply: high
